# protein stability index values compiled below
system: Saccharomyces cerevisiae; assay: protein stability index of tFT-peptide fusion (C-terminal peptide) (PSI (0-1 scale)); higher = more stable (slower turnover); details: genetic background: wild type; temperature: 30 C
Give the figure by itself; no unit, no explanation.

Reference set, count: 8
INSERT INTO assay_data (query_sequence, numeric_readout) VALUES
  ('FGYSGCVAKTGL', 0.658),
  ('PGPDMSSVSSDY', 0.6),
  ('SGVLRLSGTGAV', 0.688),
  ('HYSLSHLRIVLD', 0.645),
  ('TKKKKKEKGDST', 0.702),
  ('PELCLSSPSSLS', 0.686),
  ('YQDGLCYYFCTT', 0.559),
  ('GVVGGVGGFFGC', 0.754);

Identify protein stability index associated with the sequence `ALPPPPPHPSPS`
0.717

Identify protein stability index associated with the sequence `ARPVPRAPSRYA`
0.647

Identify protein stability index associated with the sequence `KKNKNLTYKRMI`
0.716

Identify protein stability index associated with the sequence `PPPHSPSPTPHW`
0.713

Identify protein stability index associated with the sequence `DSGLVSRNLFLH`
0.645

Identify protein stability index associated with the sequence `SPLVSSPPPALL`
0.643

Identify protein stability index associated with the sequence `CLPTGMSKFPDF`
0.683

Identify protein stability index associated with the sequence `GVRGGWVVNRGV`
0.732

Identify protein stability index associated with the sequence `NNGLLLDILIKA`
0.364

Identify protein stability index associated with the sequence `STLPACNCLKLL`
0.426

Identify protein stability index associated with the sequence `CFFVSLFFYIDC`
0.323

Identify protein stability index associated with the sequence `VGAWGCGMWVVG`
0.645

Identify protein stability index associated with the sequence `PPPRFRLSSFPT`
0.701

Identify protein stability index associated with the sequence `RPKWLCAIATAD`
0.687

Identify protein stability index associated with the sequence `HRQERLETKTYF`
0.623

Identify protein stability index associated with the sequence `RVRFRVYKGGAL`
0.661

###

tested on: Saccharomyces cerevisiae; test: protein stability index of tFT-peptide fusion (C-terminal peptide) (PSI (0-1 scale)); higher = more stable (slower turnover); conditions: genetic background: wild type; temperature: 30 C
Test readout: protein stability index
Give the figure by itself; no unit, no explanation.

Reference set, count: 4
INSERT INTO measurements (query_sequence, test_readout, numeric_readout) VALUES
  ('PKKNIKSKNIIL', 'protein stability index', 0.714),
  ('RSSIGNLCCRLL', 'protein stability index', 0.688),
  ('VTLWQLANNTLG', 'protein stability index', 0.626),
  ('PNVPVPTPPPGI', 'protein stability index', 0.729);

Identify protein stability index associated with the sequence `CALCRLGVAWVS`
0.596

Identify protein stability index associated with the sequence `TSWTTVYSSLLT`
0.672

Identify protein stability index associated with the sequence `ARIRDSPVIKTV`
0.672

###

tested on: Saccharomyces cerevisiae; assay: protein stability index of tFT-peptide fusion (C-terminal peptide) (PSI (0-1 scale)); higher = more stable (slower turnover); conditions: genetic background: wild type; temperature: 30 C
Test readout: protein stability index

INSERT INTO assay_data (query_sequence, test_readout, result) VALUES
  ('PRSLSLLPPSSP', 'protein stability index', 0.734),
  ('ILRLSLPYEGYI', 'protein stability index', 0.645);

Consider now this further sequence.
Identify protein stability index associated with the sequence `SSILQFSCFHGN`
0.707

###

tested on: Saccharomyces cerevisiae; assay: protein stability index of tFT-peptide fusion in deletion strain of DOA10 (PSI (0-1 scale)); higher = more stable (slower turnover)
Test readout: protein stability index
Give the figure by itself; no unit, no explanation.

Reference set, count: 2
INSERT INTO assay_data (query_sequence, numeric_readout) VALUES
  ('AITLPMYPLLLR', 0.651),
  ('GLYMCSVGCHFR', 0.663);

Identify protein stability index associated with the sequence `GLYMVSVGCWFR`
0.38

Identify protein stability index associated with the sequence `QITLPMCPLLLR`
0.645

###

tested on: Saccharomyces cerevisiae; experiment: protein stability index of tFT-peptide fusion (C-terminal peptide) (PSI (0-1 scale)); higher = more stable (slower turnover); conditions: genetic background: doa10 deletion; temperature: 30 C
Test readout: protein stability index
Give the figure by itself; no unit, no explanation.

INSERT INTO measurements (query_sequence, numeric_readout) VALUES
  ('KSTLVRILVFHV', 0.282),
  ('FFSRIIAILVLM', 0.135),
  ('IVCAVTSIFLFF', 0.243);

Identify protein stability index associated with the sequence `LNQRGKRKYLIM`
0.372

Identify protein stability index associated with the sequence `TMSGVTRCVLVL`
0.339

Identify protein stability index associated with the sequence `YVSSFSLVVLLS`
0.108

Identify protein stability index associated with the sequence `NTNITHHSVKLR`
0.644

Identify protein stability index associated with the sequence `HLAQYSSSLHLM`
0.375

Identify protein stability index associated with the sequence `RIHRRLIKNKRV`
0.155

Identify protein stability index associated with the sequence `FGALVVCFLTRC`
0.289

Identify protein stability index associated with the sequence `LWFVIYLLCFFV`
0.285

Identify protein stability index associated with the sequence `LSACYSRYVFVS`
0.0584

Identify protein stability index associated with the sequence `LLFLLSPFNFAV`
0.254

###

# protein stability index values compiled below
test system: Saccharomyces cerevisiae; assay: protein stability index of tFT-peptide fusion (C-terminal peptide) (PSI (0-1 scale)); higher = more stable (slower turnover); details: genetic background: wild type; temperature: 30 C
Give the figure by itself; no unit, no explanation.

Identify protein stability index associated with the sequence `FLPWPSYPTPGP`
0.784

Identify protein stability index associated with the sequence `CLHFSFFTFENF`
0.67

###

# protein stability index values compiled below
tested on: Saccharomyces cerevisiae; experiment: protein stability index of tFT-peptide fusion (C-terminal peptide) (PSI (0-1 scale)); higher = more stable (slower turnover); conditions: genetic background: wild type; temperature: 30 C

INSERT INTO measurements (query_sequence, result) VALUES
  ('CPLCRSEIPFRR [RKR1 C-terminal 12 aa]', 0.724),
  ('PMIWHLVKKQWK [TOM5 C-terminal 12 aa]', 0.682),
  ('NQKNEDLSDIKL [UTP30 C-terminal 12 aa]', 0.755),
  ('LQFILPSMNLAN [GPB1 C-terminal 12 aa]', 0.656),
  ('RRAAESGKLKME [YNL108C C-terminal 12 aa]', 0.698),
  ('NKYMNEMLEYMQ [NUF2 C-terminal 12 aa]', 0.719);

Identify protein stability index associated with the sequence ILIRKKLKAENI [OPY1 C-terminal 12 aa]
0.646

Identify protein stability index associated with the sequence LEEFLVRGTNNQ [ATP25 C-terminal 12 aa]
0.663

Identify protein stability index associated with the sequence SHYHMWPIKRII [YMR082C C-terminal 12 aa]
0.567

Identify protein stability index associated with the sequence VFLYRKRIFIKL [GWT1 C-terminal 12 aa]
0.485

Identify protein stability index associated with the sequence SPTRKRPPPRLS [INN1 C-terminal 12 aa]
0.722

Identify protein stability index associated with the sequence ERNPSQRPQRRY [RPS10B C-terminal 12 aa]
0.679

###

system: Saccharomyces cerevisiae; assay: protein stability index of tFT-peptide fusion (C-terminal peptide) (PSI (0-1 scale)); higher = more stable (slower turnover); conditions: genetic background: wild type; temperature: 30 C
# protein stability index values compiled below

Reference set, count: 4
INSERT INTO assay_data (query_sequence, test_readout, result) VALUES
  ('AFPGCRPFRPLH', 'protein stability index', 0.709),
  ('SPLTYTAPRCPR', 'protein stability index', 0.82),
  ('TLAKSSQNLMCV', 'protein stability index', 0.744),
  ('WSLIARYSPCHF', 'protein stability index', 0.67);

Identify protein stability index associated with the sequence `LLGASIIGQFYL`
0.758

Identify protein stability index associated with the sequence `AMVATAYINPHE`
0.712

Identify protein stability index associated with the sequence `KDRRNKNKRQEY`
0.633

Identify protein stability index associated with the sequence `RCGGGGSVSFWW`
0.693

###

test system: Saccharomyces cerevisiae; assay: protein stability index of tFT-peptide fusion in deletion strain of DOA10 (PSI (0-1 scale)); higher = more stable (slower turnover)
Test readout: protein stability index
Give the figure by itself; no unit, no explanation.

Reference set, count: 8
INSERT INTO measurements (query_sequence, test_target, numeric_readout) VALUES
  ('RSLRVLLPLDFR', 'Saccharomyces cerevisiae', 0.723),
  ('CLVLLPILLFFR', 'Saccharomyces cerevisiae', 0.442),
  ('AITLPMCPLLLF', 'Saccharomyces cerevisiae', 0.512),
  ('GLYMCSTGCWFR', 'Saccharomyces cerevisiae', 0.684),
  ('RSLVVLLPLYFR', 'Saccharomyces cerevisiae', 0.634),
  ('CLVSLPILAFFR', 'Saccharomyces cerevisiae', 0.613),
  ('RVTRLDAIYFLI', 'Saccharomyces cerevisiae', 0.119),
  ('GRYMCSVGCWFR', 'Saccharomyces cerevisiae', 0.669);

Identify protein stability index associated with the sequence `CLVSLPILLLFR`
0.579

Identify protein stability index associated with the sequence `AIMLPMCPLLLR`
0.612

Identify protein stability index associated with the sequence `RVTRLDAIYFSI`
0.713

Identify protein stability index associated with the sequence `AITLPMCHLLLR`
0.663

Identify protein stability index associated with the sequence `CLVSLPTLLFFR`
0.663

Identify protein stability index associated with the sequence `CCVSLPILLFFR`
0.606
